Provenance of the data: ChEMBL document CHEMBL5136981

# target.of.assay: von Hippel-Lindau disease tumor suppressor/Histone deacetylase 1 (Homo sapiens, UniProt P40337+Q13547)
# Sequence (Q13547 whole entry): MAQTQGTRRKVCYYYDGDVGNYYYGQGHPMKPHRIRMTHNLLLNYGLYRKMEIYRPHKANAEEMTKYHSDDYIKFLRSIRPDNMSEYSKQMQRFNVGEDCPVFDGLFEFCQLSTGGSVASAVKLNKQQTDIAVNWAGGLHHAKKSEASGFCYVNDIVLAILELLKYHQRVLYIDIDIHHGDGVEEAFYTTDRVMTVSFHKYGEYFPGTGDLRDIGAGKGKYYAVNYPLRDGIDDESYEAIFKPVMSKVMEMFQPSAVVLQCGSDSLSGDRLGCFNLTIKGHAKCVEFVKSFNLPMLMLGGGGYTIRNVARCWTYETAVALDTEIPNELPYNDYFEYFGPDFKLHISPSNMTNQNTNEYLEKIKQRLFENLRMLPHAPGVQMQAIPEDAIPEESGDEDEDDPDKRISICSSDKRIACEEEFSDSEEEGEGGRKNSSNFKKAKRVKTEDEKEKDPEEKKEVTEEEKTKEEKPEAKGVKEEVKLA
# Sequence (P40337 whole entry): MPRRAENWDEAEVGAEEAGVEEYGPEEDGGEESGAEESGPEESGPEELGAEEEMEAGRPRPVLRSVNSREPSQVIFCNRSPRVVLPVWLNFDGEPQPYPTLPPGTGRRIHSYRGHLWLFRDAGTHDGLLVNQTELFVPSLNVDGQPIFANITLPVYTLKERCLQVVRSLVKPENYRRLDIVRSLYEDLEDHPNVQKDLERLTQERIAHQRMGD
# test: PROTAC activity at VHL/LSD1/HDAC1/CoREST complex interaction (unknown origin) assessed as induction of HDAC1 degradation using Boc-(Ac)Lys-AMC as substrate incubated for 20 mins by fluorescence based assay
measure.name: IC50 (µM)
Answers are plain numbers, in µM.

**Q:** Let me know recorded IC50 for Cc1ncsc1-c1ccc(CNC(=O)[C@@H]2C[C@@H](O)CN2C(=O)[C@@H](NC(=O)CCCCCCCCCCC(=O)Nc2ccc(C(=O)Nc3ccccc3N)cc2)C(C)(C)C)cc1 , thanks.
**A:** 16.8

###

# target.of.assay: Protein deacetylase HDAC6 (Homo sapiens)
# test: Inhibition of HDAC6 (unknown origin) incubated for 30 mins by fluorescence based assay
measure.name: IC50 (nM)
Give bare numbers, in nM.

**Q:** Let me know recorded IC50 for O=C(CCCCCCC(=O)Nc1nc2c(s1)C[C@@H](NC(=O)c1cccc3ccccc13)CC2)NO , thanks.
**A:** 4.6

###

# target.of.assay: Protein cereblon/Histone deacetylase 1 (Homo sapiens, UniProt Q13547+Q96SW2)
# Sequence (Q96SW2 whole entry, one chain of several): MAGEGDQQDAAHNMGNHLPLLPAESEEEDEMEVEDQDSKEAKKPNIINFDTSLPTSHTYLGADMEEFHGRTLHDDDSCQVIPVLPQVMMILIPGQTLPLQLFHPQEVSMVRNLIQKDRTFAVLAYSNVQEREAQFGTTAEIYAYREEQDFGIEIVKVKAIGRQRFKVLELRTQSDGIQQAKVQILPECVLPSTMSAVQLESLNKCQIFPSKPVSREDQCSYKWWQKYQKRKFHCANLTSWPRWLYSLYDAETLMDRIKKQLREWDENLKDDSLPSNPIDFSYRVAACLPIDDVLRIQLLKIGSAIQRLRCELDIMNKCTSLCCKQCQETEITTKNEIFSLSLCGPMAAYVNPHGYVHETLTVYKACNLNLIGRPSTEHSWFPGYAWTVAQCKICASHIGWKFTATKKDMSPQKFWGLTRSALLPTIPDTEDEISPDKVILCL
# test: PROTAC activity at CRBN/HDAC1 (unknown origin) by cell based assay
measure.name: pIC50
One number for each entry, as −log10 of the molar value.

**Q:** Let me know recorded pIC50 for O=C(CCCCCCNC(=O)c1ccc(NC(=O)COCCOCCNC(=O)COc2cccc3c2C(=O)N(C2CCC(=O)NC2=O)C3=O)cc1)NO (stereo unspecified) , thanks.
**A:** 6.76

###

# target.of.assay: Protein deacetylase HDAC6 (Homo sapiens)
# Sequence (Q9UBN7 whole entry): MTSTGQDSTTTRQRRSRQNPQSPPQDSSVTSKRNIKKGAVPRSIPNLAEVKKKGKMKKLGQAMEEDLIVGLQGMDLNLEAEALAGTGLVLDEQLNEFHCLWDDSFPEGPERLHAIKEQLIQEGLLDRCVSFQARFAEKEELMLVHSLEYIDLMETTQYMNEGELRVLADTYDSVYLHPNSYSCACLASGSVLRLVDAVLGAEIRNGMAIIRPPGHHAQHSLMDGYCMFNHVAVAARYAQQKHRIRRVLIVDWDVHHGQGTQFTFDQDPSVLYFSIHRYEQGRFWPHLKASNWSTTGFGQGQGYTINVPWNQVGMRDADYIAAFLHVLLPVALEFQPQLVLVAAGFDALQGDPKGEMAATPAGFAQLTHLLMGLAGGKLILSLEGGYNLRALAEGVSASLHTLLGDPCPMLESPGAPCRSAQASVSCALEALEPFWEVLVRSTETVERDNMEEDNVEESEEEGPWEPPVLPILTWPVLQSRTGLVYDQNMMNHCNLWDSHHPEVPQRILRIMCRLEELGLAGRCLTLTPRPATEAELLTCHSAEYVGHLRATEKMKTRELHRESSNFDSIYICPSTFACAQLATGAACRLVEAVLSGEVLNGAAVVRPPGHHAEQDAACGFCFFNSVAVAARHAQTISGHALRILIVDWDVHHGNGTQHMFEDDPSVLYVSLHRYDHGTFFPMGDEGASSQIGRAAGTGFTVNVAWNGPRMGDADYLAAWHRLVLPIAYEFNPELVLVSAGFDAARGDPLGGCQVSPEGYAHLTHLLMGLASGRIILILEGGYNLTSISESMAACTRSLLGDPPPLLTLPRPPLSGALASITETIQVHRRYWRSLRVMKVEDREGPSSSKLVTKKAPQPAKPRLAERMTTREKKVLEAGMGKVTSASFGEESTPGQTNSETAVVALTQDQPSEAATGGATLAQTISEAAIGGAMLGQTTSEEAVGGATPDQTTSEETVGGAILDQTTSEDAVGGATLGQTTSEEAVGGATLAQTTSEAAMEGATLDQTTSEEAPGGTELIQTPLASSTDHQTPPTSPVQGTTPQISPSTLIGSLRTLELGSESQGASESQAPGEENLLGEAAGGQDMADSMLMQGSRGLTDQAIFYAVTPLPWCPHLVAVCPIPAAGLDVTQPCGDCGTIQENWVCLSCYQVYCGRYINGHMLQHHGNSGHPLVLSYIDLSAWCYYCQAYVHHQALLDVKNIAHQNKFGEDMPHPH
# test: Inhibition of HDAC6 derived from human HeLa cell nuclear extract using Boc-Lys(Ac)-AMC as substrate by fluorescence based assay
# Format: cell-free
measure.name: pIC50
Answers are plain numbers, as −log10 of the molar value.

**Q:** Let me know recorded pIC50 for CC(C)n1cnc2c(-c3cccc(OCCCC(=O)NO)c3)nc(N3CCOCC3)nc21 , thanks.
**A:** 7.62
